# Tested on: COLO-320-HSR (Colorectal Carcinoma)
# experimental-protocol: combination Emax (second highest fraction inhibited in the dose matrix, 72 h); higher = more inhibition; extreme values may be limits of the assay
parameter-measured: combination Emax
No unit in the answer, only the number.

The reported combination Emax of the compound C=CCn1c(=O)c2cnc(Nc3ccc(N4CCN(C)CC4)cc3)nc2n1-c1cccc(C(C)(C)O)n1 [AZD1775] + Nc1ccn([C@@H]2O[C@H](CO)[C@@H](O)C2(F)F)c(=O)n1 [Gemcitabine] (first compound max 1 µM, partner max 0.3 µM) was 0.811

The reported combination Emax of the compound NC1(C(=O)N[C@@H](CCO)c2ccc(Cl)cc2)CCN(c2ncnc3[nH]ccc23)CC1 [Capivasertib] + CCN(CCO)CCCOc1ccc2c(Nc3cc(CC(=O)Nc4cccc(F)c4)[nH]n3)ncnc2c1 [AZD2811] (first compound max 10 µM, 7x7, partner max 1 µM) was 0.174

The reported combination Emax of the compound Cc1c2c(nn1C)CSCc1cc(n(C)n1)CSc1cc(c3ccccc3c1)OCCCc1c(C(=O)O)n(C)c3c-2c(Cl)ccc13 [AZD5991] + Cc1cc2ncnn2cc1Nc1ncc2c(n1)n(C1CCOCC1)c(=O)n2C [AZD7648] (first compound max 1 µM, 7x7, partner max 10 µM) was 0.808

The reported combination Emax of the compound COc1cccc(OCCCN)c1-c1cc(Nc2cnc(C#N)cn2)n[nH]1 [Prexasertib] + Cc1cc2ncnn2cc1Nc1ncc2c(n1)n(C1CCOCC1)c(=O)n2C [AZD7648] (first compound max 1 µM, 7x7, partner max 10 µM) was 0.669

The reported combination Emax of the compound COc1cccc(OCCCN)c1-c1cc(Nc2cnc(C#N)cn2)n[nH]1 [Prexasertib] + C=CCn1c(=O)c2cnc(Nc3ccc(N4CCN(C)CC4)cc3)nc2n1-c1cccc(C(C)(C)O)n1 [AZD1775] (first compound max 1 µM, partner max 1 µM) was 0.86

The reported combination Emax of the compound Cc1cc2ncnn2cc1Nc1ncc2c(n1)n(C1CCOCC1)c(=O)n2C [AZD7648] + CN(C)CCCOc1ccc(-c2ccc3ncc4c(c3c2)n(C2CCOCC2)c(=O)n4C)cn1 [AZD0156] (first compound max 10 µM, 7x7, partner max 1 µM) was 0.27

The reported combination Emax of the compound CN(CCO)CC[C@H](CSc1ccccc1)Nc1ccc(S(=O)(=O)NC(=O)c2ccc(N3CCC([C@@H](O)c4ccccc4-c4ccc(Cl)cc4)CC3)cc2)cc1S(=O)(=O)C(F)(F)F [AZD4320] + C[C@@H]1COCCN1C2=NC(=NC(=C2)C3(CC3)[S@](=N)(=O)C)C4=C5C=CNC5=NC=C4 [AZD6738] (first compound max 1 µM, 7x7, partner max 10 µM) was 0.543

The reported combination Emax of the compound CC1(C)CCC(CN2CCN(c3ccc(C(=O)NS(=O)(=O)c4ccc(NCC5CCOCC5)c([N+](=O)[O-])c4)c(Oc4cnc5[nH]ccc5c4)c3)CC2)=C(c2ccc(Cl)cc2)C1 [Venetoclax] + Cc1cc2ncnn2cc1Nc1ncc2c(n1)n(C1CCOCC1)c(=O)n2C [AZD7648] (first compound max 1 µM, 7x7, partner max 10 µM) was 0.174

The reported combination Emax of the compound Cc1cc2ncnn2cc1Nc1ncc2c(n1)n(C1CCOCC1)c(=O)n2C [AZD7648] + C[C@@H]1COCCN1C2=NC(=NC(=C2)C3(CC3)[S@](=N)(=O)C)C4=C5C=CNC5=NC=C4 [AZD6738] (first compound max 10 µM, 7x7, partner max 10 µM) was 0.616

The reported combination Emax of the compound NC1(C(=O)N[C@@H](CCO)c2ccc(Cl)cc2)CCN(c2ncnc3[nH]ccc23)CC1 [Capivasertib] + Cn1cnc2c(F)c(Nc3ccc(Br)cc3Cl)c(C(=O)NOCCO)cc21 [Selumetinib] (first compound max 10 µM, 7x7, partner max 10 µM) was 0.214

The reported combination Emax of the compound COc1cccc2c1C(=O)c1c(O)c3c(c(O)c1C2=O)C[C@@](O)(C(=O)CO)C[C@@H]3O[C@H]1C[C@H](N)[C@H](O)[C@H](C)O1 [Doxorubicin] + Cc1cc2ncnn2cc1Nc1ncc2c(n1)n(C1CCOCC1)c(=O)n2C [AZD7648] (first compound max 1 µM, 7x7, partner max 10 µM) was 0.464

The reported combination Emax of the compound CN(CCO)CC[C@H](CSc1ccccc1)Nc1ccc(S(=O)(=O)NC(=O)c2ccc(N3CCC([C@@H](O)c4ccccc4-c4ccc(Cl)cc4)CC3)cc2)cc1S(=O)(=O)C(F)(F)F [AZD4320] + Cn1cnc2c(F)c(Nc3ccc(Br)cc3Cl)c(C(=O)NOCCO)cc21 [Selumetinib] (first compound max 1 µM, 7x7, partner max 3 µM) was 0.198

The reported combination Emax of the compound CN(C)CCCOc1ccc(-c2ccc3ncc4c(c3c2)n(C2CCOCC2)c(=O)n4C)cn1 [AZD0156] + C[C@@H]1COCCN1C2=NC(=NC(=C2)C3(CC3)[S@](=N)(=O)C)C4=C5C=CNC5=NC=C4 [AZD6738] (first compound max 1 µM, 7x7, partner max 10 µM) was 0.652

The reported combination Emax of the compound Cc1c2c(nn1C)CSCc1cc(n(C)n1)CSc1cc(c3ccccc3c1)OCCCc1c(C(=O)O)n(C)c3c-2c(Cl)ccc13 [AZD5991] + CS(=O)(=O)CCNCc1ccc(-c2ccc3ncnc(Nc4ccc(OCc5cccc(F)c5)c(Cl)c4)c3c2)o1 [Lapatinib] (first compound max 1 µM, 7x7, partner max 10 µM) was 1

The reported combination Emax of the compound O=C(c1cc(Cc2n[nH]c(=O)c3ccccc23)ccc1F)N1CCN(C(=O)C2CC2)CC1 [Olaparib] + Cc1c2c(nn1C)CSCc1cc(n(C)n1)CSc1cc(c3ccccc3c1)OCCCc1c(C(=O)O)n(C)c3c-2c(Cl)ccc13 [AZD5991] (first compound max 10 µM, 7x7, partner max 1 µM) was 0.836
